- System: SK-MEL-2
- test details: NCI tumour cell line growth inhibition, 48 h
Activity calls are given as the source filed them. Cut-off read from the data, not from the text of the source: active = GI50 up to about 1.1 µM and inactive = higher.
So I've got a bunch of molecules here, and I need their GI50 values.

Query block: GI50 lookup needed for COc1ccc(C2c3cc4c(cc3OC(N3CCCCC3)C2C)OCO4)cc1 (configuration not stated) , thanks.
Result block: > 100 µM (inactive)

Query block: Please give the measured GI50 for this molecule: FC1(F)ON2CCc3ccccc3C2[C@H]1c1ccccc1 (some centres not stated)
Result block: > 10 µM (inactive)

Query block: What does the data say about its GI50? Entry: O=C1c2ccccc2C(=O)N1c1nc(-c2ccc(Cl)cc2)cc(N2N=C(c3ccc(Br)cc3)CC2c2ccccc2)n1 (configuration not stated)
Result block: 3.26 µM (inactive)

Query block: Could you tell me which GI50 is on file for N#CNc1nc(C(=O)Nc2ccc(Cl)cc2)cc(-c2ccccc2)n1 ?
Result block: > 100 µM (inactive)

Query block: # query: GI50 of entry O=C1C2=C(c3ccccc31)C(c1ccccc1)NC(S)=N2 (configuration not stated)
Result block: 84.1 µM (inactive)

Query block: Please give the measured GI50 for this molecule: COc1ccc(-c2c3c(cc4cc5c(cc24)OCO5)C(=O)OC3)cc1OC
Result block: 1.83 µM (inactive)

Query block: For Fc1ccccc1-c1nn2c(C34CC5CC(CC(C5)C3)C4)nnc2s1 , what is its reported GI50?
Result block: > 100 µM (inactive)

Query block: Fill in the blank: the reported GI50 of CCCCCCCCCCCCCC(=O)O.O=CC(O)C(O)C(OC1OC(CO)C(O)C(O)C1O)C(O)CO (configuration not stated) is ____.
Result block: > 100 µM (inactive)

Query block: Which GI50 value is on record for N=C(N)N/N=C/c1c(-c2ccccc2)nc2ccn3c(/C=N/N=C(N)N)c(-c4ccccc4)nc3n12 ?
Result block: > 100 µM (inactive)

Query block: GET /values?readout=GI50&item= CC(=O)Nc1ccc(S(=O)(=O)N/N=C(\C)CN2C(=O)c3ccccc3C2=O)cc1
Result block: > 100 µM (inactive)

Query block: Would you kindly share the measured GI50 for CNc1nc(SC)nc2c1c(N)nn2C ?
Result block: > 100 µM (inactive)

Query block: Look up GI50 for this molecule: O=C1NC(N2CCCCC2)=N/C1=C\c1ccccc1O
Result block: > 100 µM (inactive)

src = ChEMBL document CHEMBL1201862
